The binders listed here are annotated with their koff.
- target_desc: T1, NPNA4 peptide (Plasmodium falciparum (isolate 3D7)., not fully specified)
- T1 construct: source: synthetic peptide (InnoPep Inc)
- T1 chain: NPNANPNANPNANPNA
- assay_notes: BLI
- test_parameters: both partners purified
Ends that are not written are not given here.
Report as a plain number; the unit s⁻¹ is understood.

Recorded results for 3 binders are shown here.
binder="311R Fab (Fab, V domains shown, also called germline-reverted 311; source: ExpiCHO cells, purified (mAb Select PrismA or Capture Select, SEC)) VH: QVQLVESGGGVVPPGRSLRLSCATSGFTFSSYGMHWVRQAPGKGLEWVAIIWYDGSNKFYAASVKGRFTISRDNSKNTLYLQMNSLRVEDTAVYYCARAAYYDTSGYGDYWGQGTLVTVSS VL: QSVLTQPPSVSGAPGQTVTISCTGGSSNIGAGYDVHWYQQLPGTAPKLLIYGNINRPSGVPDRFSGSKSGTSASLAITGLQAEDEADYYCQSYDSSLSGSWVFGGGTKLTVL" recorded_metric=koff meas_value=0.0088
binder="239R Fab (Fab, V domains shown, also called germline-reverted 239; source: ExpiCHO cells, purified (mAb Select PrismA or Capture Select, SEC)) VH: QVQLVESGGGVVQPGRSLRLSCAASRLTFSSYGMHWVRQTPGKGLEWVAVIWHDGSNKFYADSVKGRFTISRDNSKNTLYLQMNSLRDEDTAIYYCAKDWGGASDRVFDYWGRGTLVIVSS VL: DIQMTQSPSTLSASVGDRVTITCRASQSVSTSLAWYQQKPGKAPNLLIYQASTLYTGVPSRFSGSGSGTEFTLTIGSLQPDDFATYYCQHYNSYSRITFGQGTRLEIK" recorded_metric=koff meas_value=0.033
binder="227 Fab (Fab, V domains shown, also called mAb 227; source: ExpiCHO cells, purified (mAb Select PrismA or Capture Select, SEC)) VH: QVQLVQSGGGVVQPGRSLRLSCVTSGFTFPAFGMHWVRQAPGKGLEWVAVIWYDGSKKYYADSVRGRFTISRDNSRNTLYLQMHSLRAEDTAVYYCARVKNYESSGYSQCLDYWGQGVLVTVAS VL: QSVLTQPPSVSGAPGQRVTISCTGSSSNIGAGYDVHWYQQLPGTAPKLLIYGNGNRPSGVPDRFSGSKSGTSVSLAITGLQAEDEADYYCQSYDSSLSAFVFGTGTKVTVL" recorded_metric=koff meas_value=0.0058

Query: Which koff reading was recorded for the binder 239 Fab (Fab, V domains shown, also called mAb 239; source: ExpiCHO cells, purified (mAb Select PrismA or Capture Select, SEC)) VH: QVQLVESGGGVVQPGRSLRLSCAASRLTFRNFGMHWVRQTPGKGLEWVAVIWHDGSNKFYADSVEGRFTISRDNSKNTLYLQMNSLRDEDTAIYYCAKDWGGASDRVFDYWGRGTLVIVSS VL: DIQMTQSPSTLSASVGDRVTITCRASQSVSTSLAWYQQKPGKAPNLLIYQASTLYRGVPSRFSGSGSGTEFTLTIGSLQPDDFATYYCQHYNSYSRITFGQGTRLEIK ?
Result: 0.0063

Query: Which koff reading was recorded for the binder 311 Fab (Fab, V domains shown, also called mAb 311; source: ExpiCHO cells, purified (mAb Select PrismA or Capture Select, SEC)) VH: QVQLVESGGGVVPPGRSLRLSCATSGFTFSNYGMHWVRQAPGKGLEWVAIIWYDGSRNFYAASVEGRFTISRDNSKNTLYLQMNSLRVEDTAVYYCARAAYYDTSGYGDYWGQGTLVTVSS VL: QSVLTQPPSVSGAPGQTVTISCTGGSSNIGAGYDVHWYQQLPGTAPKLLIYGNINRPSGVPDRFSGSKSGTSASLAITGLQAEDEADYYCQSYDRRLSGSWVFGGGTKLTVL ?
Result: 0.0041
